Cited source for all entries: the RNAGym collection of RNA variant scans (doi:10.1093/molbev/msab373)

Exercise: for every item that follows, state its recorded reverse-splicing fitness.
B1: Azoarcus group I ribozyme (parent)
chain: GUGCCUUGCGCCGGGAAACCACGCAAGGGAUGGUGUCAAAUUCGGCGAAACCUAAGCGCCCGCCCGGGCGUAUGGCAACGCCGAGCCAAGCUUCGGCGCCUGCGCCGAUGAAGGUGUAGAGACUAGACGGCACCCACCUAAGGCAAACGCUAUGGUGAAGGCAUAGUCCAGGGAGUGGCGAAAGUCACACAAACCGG

Variants of: B1
assay.details: reverse-splicing fitness (ratio to wild type); higher = more active; in vitro selection; Mg2+ level not given
Field format: numeric only.

Input: Identify measured reverse-splicing fitness corresponding to C82G A120G C169G U176G
Output: 0.00375

Input: Hello, please tell me recorded reverse-splicing fitness for this one: C82A A120C A145C C150G C169A
Output: 0.00891

Input: Hello, please tell me recorded reverse-splicing fitness for this one: C82U A111G A120G A145G C150A C169A U176G
Output: 0.00545

Input: Please list reverse-splicing fitness recorded for the variant C82A A111U A120G A145C C150G U176G
Output: 0.00318

Input: Specify reported reverse-splicing fitness for the variant shown: C82U A111G A120C C150A C169U
Output: 0.0114

Input: Name the recorded reverse-splicing fitness of the item C82A A111C C150A C169G U176A in your answer.
Output: 0.0151

Input: Indicate its recorded reverse-splicing fitness; the variant in question is C82A A145G C150G C169G U176C
Output: 0.0134

Input: State its reverse-splicing fitness for this variant: C82U A120U A145G C150U C169U U176G
Output: 0.00198

Input: Supply measured reverse-splicing fitness of C82U A111U A120G C150G C169U U176G in your reply.
Output: 0.00556

Input: Dear colleague, please send me the reported reverse-splicing fitness for C82U A111G A120C A145U C150A C169A U176G when you can.
Output: 0.00469

Input: Return value of reverse-splicing fitness for input A120U A145G C169G , no commentary.
Output: 0.255

Input: Tell us which reverse-splicing fitness value is on record for C82U A111U A120U A145G C150A C169G U176A
Output: 0.00789

Input: Given the variant C82G A111G A120G A145C C150U C169U U176G , write its reported reverse-splicing fitness.
Output: 0.00538

Input: For the variant C82A A111C A120U U176A , give its measured reverse-splicing fitness value.
Output: 0.00732

Input: Look up and state reported reverse-splicing fitness for A120C C150G
Output: 0.187

Input: Look up reverse-splicing fitness of C82U A111G A120C A145C C150G C169A U176A and report it.
Output: 0.00643

Input: Supply reverse-splicing fitness value. Item: C82G A111U A120G A145U C150A C169G U176G
Output: 0.00501

Input: Read off the recorded reverse-splicing fitness for C82U A111U A120G A145U
Output: 0.0147

Input: Determine its reported reverse-splicing fitness: A111G A120C A145U C150U
Output: 0.579

Input: Kindly indicate its recorded reverse-splicing fitness. Item: C82G A111U A145U C150G C169A U176G
Output: 0.00706

Input: Complete the entry with reverse-splicing fitness for C82A A145G C150A C169A U176A
Output: 0.0195

Input: Supply reported reverse-splicing fitness belonging to this variant: A111U A145C C150A C169A U176A
Output: 0.0128

Input: Retrieve reverse-splicing fitness measured for A111U C169G U176C and print it.
Output: 0.0333

Input: Could you please provide reported reverse-splicing fitness for C82G A111U A120U C150U C169U ? Thanks!
Output: 0.00485

Input: Indicate its recorded reverse-splicing fitness; the variant in question is A111C A145G C150U U176C
Output: 0.404

Input: Identify the reported reverse-splicing fitness for the following entry. A111U A145C C150A U176C
Output: 0.127

Input: Answer with the recorded reverse-splicing fitness of A145G C150U C169U U176G only.
Output: 0.00803

Input: Give a short answer stating reported reverse-splicing fitness for C82G A111C A120U A145C C150G C169U U176C .
Output: 0.00324

Input: Please report the measured reverse-splicing fitness for C82A A111U A145U C150A U176C
Output: 0.0251

Input: Quick one: give measured reverse-splicing fitness for C82A A120C C150G U176G
Output: 0.00347

Input: State its reverse-splicing fitness: C82G A111U C150G
Output: 0.0227

Input: Report measured reverse-splicing fitness; entry is C82G A111U A120U A145C C150G C169G U176C
Output: 0.00235

Input: Using the record for C82G A111G A120G A145G C150G C169A U176G , state its measured reverse-splicing fitness.
Output: 0.00881

Input: Read the entry C82G A111U A120U A145G C169A U176C and write its reported reverse-splicing fitness.
Output: 0.00529

Input: Provide one value: measured reverse-splicing fitness of C82A A111G A120C A145U C150A U176A
Output: 0.012

Input: Input C82A A111C A120U A145U C150G C169U U176C , output reported reverse-splicing fitness.
Output: 0.00305

Input: Tell us which reverse-splicing fitness value is on record for C82G A145U C150U C169U U176C
Output: 0.0121

Input: # return recorded reverse-splicing fitness for entry C82G A120U C150A C169U U176C
Output: 0.00296

Input: Supply reverse-splicing fitness value. Item: C82A A120U A145U C150A
Output: 0.0126

Input: Read off the recorded reverse-splicing fitness for C82U A111C A120U A145G C150A U176G
Output: 0.00319

Input: Supply reported reverse-splicing fitness belonging to this variant: C82U A111U A120U A145U C150G C169U U176G
Output: 0.0024

Input: Write down reverse-splicing fitness measured for item C82A A111U C150A C169G U176G
Output: 0.00794

Input: Return reported reverse-splicing fitness. Input variant: A120G A145C C150U C169U
Output: 0.153

Input: Report reverse-splicing fitness for C82U A145C C169U
Output: 0.0123

Input: Please give the documented reverse-splicing fitness of A111C A120C A145U C150U C169U
Output: 0.125

Input: Supply recorded reverse-splicing fitness for C82G A111C A120C A145G C150A C169G U176G here.
Output: 0.00768
